tested on: JVM2 (cancer type: Mantle); assay: normalized area under the dose-response curve (viability relative to DMSO control) (fraction); higher = less sensitive (more viable cells); conditions: exposure time not given
Counter-ions that a name gives are not always drawn.
metric_name: normalized area under the dose-response curve
Give the value as a plain number.

Known normalized area under the dose-response curve results, listed for orientation:
Nc1nc(Cl)nc2c1ncn2[C@@H]1O[C@H](CO)[C@@H](O)[C@@H]1F :: 0.594
Nc1ncn([C@@H]2O[C@H](CO)[C@@H](O)[C@H]2O)c(=O)n1 :: 0.552

*Q* Quick check: normalized area under the dose-response curve of COc1cc2nccc(Oc3ccc(NC(=O)C4(C(=O)Nc5ccc(F)cc5)CC4)cc3)c2cc1OC [Cabozantinib] ?
*A* 0.63

*Q* Quick check: normalized area under the dose-response curve of CC1(COc2ccc3c(c2)ncn3-c2ccc3cccc(N4CCC(N)CC4)c3n2)COC1 ?
*A* 0.672

*Q* Quick check: normalized area under the dose-response curve of CC(C)C[C@H](NC(=O)[C@H](Cc1ccccc1)NC(=O)c1cnccn1)B(O)O ?
*A* 0.0575

*Q* Quick check: normalized area under the dose-response curve of Nc1ncn([C@H]2C[C@H](O)[C@@H](CO)O2)c(=O)n1 ?
*A* 0.879

*Q* Quick check: normalized area under the dose-response curve of CC(C)(O)CNc1nc(Nc2ccnc(C(F)(F)F)c2)nc(-c2cccc(C(F)(F)F)n2)n1 ?
*A* 0.787

*Q* Quick check: normalized area under the dose-response curve of COc1cc2nccc(Oc3ccc(NC(=O)NC4CC4)c(Cl)c3)c2cc1C(N)=O ?
*A* 0.723

*Q* Quick check: normalized area under the dose-response curve of Cc1ccc(Nc2nccc(N(C)c3ccc4c(C)n(C)nc4c3)n2)cc1S(N)(=O)=O [Pazopanib hydrochloride] ?
*A* 0.721

*Q* Quick check: normalized area under the dose-response curve of CC(C)(C)c1cc(NC(=O)Nc2ccc(-c3cn4c(n3)sc3cc(OCCN5CCOCC5)ccc34)cc2)no1 ?
*A* 0.764

*Q* Quick check: normalized area under the dose-response curve of CC(=O)O[C@H]1C(=O)[C@@]2(C)[C@H]([C@H](OC(=O)c3ccccc3)[C@]3(O)C[C@H](OC(=O)[C@H](O)[C@@H](NC(=O)c4ccccc4)c4ccccc4)C(C)=C1C3(C)C)[C@]1(OC(C)=O)CO[C@@H]1C[C@@H]2O ?
*A* 0.78

The origin of these recorded values is the supplement of paper PMC7214452.
